Target: acetylcholinesterase (AChE) (Electrophorus electricus, UniProt O42275)
Sequence (O42275 24-633): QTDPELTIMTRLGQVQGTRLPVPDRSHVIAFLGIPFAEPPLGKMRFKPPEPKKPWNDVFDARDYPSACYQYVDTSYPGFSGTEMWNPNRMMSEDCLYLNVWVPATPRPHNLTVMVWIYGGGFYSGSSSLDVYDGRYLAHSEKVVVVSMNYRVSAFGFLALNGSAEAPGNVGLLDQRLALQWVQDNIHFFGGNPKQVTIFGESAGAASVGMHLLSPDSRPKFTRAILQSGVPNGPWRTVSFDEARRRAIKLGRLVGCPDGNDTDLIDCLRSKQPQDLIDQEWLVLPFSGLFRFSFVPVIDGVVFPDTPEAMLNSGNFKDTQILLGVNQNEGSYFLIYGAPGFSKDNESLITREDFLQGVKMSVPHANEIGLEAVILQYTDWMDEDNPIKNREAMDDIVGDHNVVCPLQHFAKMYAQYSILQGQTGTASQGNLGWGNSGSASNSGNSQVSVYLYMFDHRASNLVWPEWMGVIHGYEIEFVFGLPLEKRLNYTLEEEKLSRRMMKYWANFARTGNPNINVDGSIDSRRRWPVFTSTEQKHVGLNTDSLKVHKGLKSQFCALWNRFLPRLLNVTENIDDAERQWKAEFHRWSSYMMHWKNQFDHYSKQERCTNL
Test: biochemical
Settings: ITC, 36.6 °C, single binding site mode, n = 9, ± SD; read-out: KD (dissociation constant)
QUANTITY_NAME: pKd
To interpret pKd, take it as minus log10 of a concentration measured in moles per litre.

GET /values?readout=pKd&system=acetylcholinesterase (AChE) (Electrophorus electricus, UniProt O42275)&item= C=C1C(=O)O[C@@H]2[C@H]3C(CO)=CC(=O)C3=C(C)C[C@H](OC(=O)Cc3ccc(O)cc3)[C@@H]12
3.77

###

Target: acetylcholinesterase (AChE) (Electrophorus electricus)
Assay: biochemical
Details: ITC, dissociation constant of the enzyme–inhibitor complex, n = 9, ± SD; read-out: KI (inhibition constant)
QUANTITY_NAME: Ki (nM)
Quick note: give the figure in nM, leave out the unit.

Returns the measured Ki for the input molecule. Input: C=C1C(=O)O[C@@H]2[C@H]3C(CO)=CC(=O)C3=C(C)C[C@H](OC(=O)Cc3ccc(O)cc3)[C@@H]12 [Lactucopicrin, lactucopicrin]
1320

###

Target: acetylcholinesterase (AChE) (Electrophorus electricus, UniProt O42275)
QUANTITY_NAME: IC50

So what does the record say about IC50 for C=C1C(=O)O[C@@H]2[C@H]3C(CO)=CC(=O)C3=C(C)C[C@H](OC(=O)Cc3ccc(O)cc3)[C@@H]12 ?
1740 nM
